Target: T1, human ASGR-1 mutant construct H203 (human, UniProt P07306 1-291)
T1 construct: Arg/Glu scanning: non-arginine residues were changed to arginine; Transiently expressed on CHO-S cells
T1 sequence: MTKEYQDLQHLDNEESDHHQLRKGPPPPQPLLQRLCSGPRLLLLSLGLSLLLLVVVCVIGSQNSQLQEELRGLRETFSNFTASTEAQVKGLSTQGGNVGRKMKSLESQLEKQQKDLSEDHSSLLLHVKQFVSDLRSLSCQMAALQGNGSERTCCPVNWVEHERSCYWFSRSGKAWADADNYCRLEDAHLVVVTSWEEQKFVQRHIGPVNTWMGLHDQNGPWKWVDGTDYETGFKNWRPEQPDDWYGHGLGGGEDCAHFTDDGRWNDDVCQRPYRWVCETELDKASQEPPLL
Test: FACS ratio: H203 normalized value / wt normalized value
Assay Metric: Normalization to wt ASGR1 Binding
Output spec: single numeric token, no unit.

Reference set (9 entries):
Binder | Reported Value
75G3 (antibody, V domains shown, mAb) VH: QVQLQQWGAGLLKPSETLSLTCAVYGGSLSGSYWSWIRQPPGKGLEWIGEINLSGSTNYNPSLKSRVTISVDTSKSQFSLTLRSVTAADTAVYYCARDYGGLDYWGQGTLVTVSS VL: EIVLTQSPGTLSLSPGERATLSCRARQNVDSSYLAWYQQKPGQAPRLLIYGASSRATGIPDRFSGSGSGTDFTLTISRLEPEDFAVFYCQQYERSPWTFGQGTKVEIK | 1.18
65D5 (antibody, V domains shown, mAb) VH: QVQLVQSGAEVKKPGASVKVSCKASGYTFPSYGISWVRQAPGQGLEWMGWISAYSGNTNYAQKLQGRVTMTTDTSTSTAYMELRSLRSDDTAVYFCARGEAVAVFDPWGQGTLVTVSS VL: DIQMTQSPSSLSASVGDRVTITCRASQDINNYLAWFQQKPGKAPRSLIYAASSLHSGVPSQFSASGSGSDFTLTISSLQPEDFATYYCPLYKSYPLTFGPGTKVDIK | 0.928
151B9 (antibody, V domains shown, mAb) VH: EVQLLESGGGLVQPGGSLRLSCAASGFTFSSYAMSWVRQAPGKGLEWVSVISGGGSSTYYADSVKGRFTISRDNSKNTLYLQMNSLRAEDTAVYYCAKWRGNPTDYGMDVWGQGTTVTVSS VL: SYELTQPPSVSVSPGQTASIACSGDNLGDKYASWYQQKPGQSPVLVIYQDSKRPSGIPERFSGSNSGNTATLTISGIQAMDEADYYCQAWDSSTVVFGGGTKLTVL | 1.11
72F5 (antibody, V domains shown, mAb) VH: EVQLLESGGGLVQPGGSLRLSCAASGFTFSSYAMIWVRQAPGKGLEWVSTISGSGGYTYSADSVKGRFTISRDNSKNTLYLQMNSLRAEDTAVYYCARRIAVTGTEWYDPWGQGTLVTVSS VL: DIQMTQSPSSLSASVGDRVIIPCRASQNISSYLNWYQQKPGKAPKLLIYAASSLQSGVPSRFSGSGSGTDFTLTISSLQPEDFATYSCQQTYSTPTFGQGTRLDIN | 1.22
197G3 (antibody, V domains shown, mAb) VH: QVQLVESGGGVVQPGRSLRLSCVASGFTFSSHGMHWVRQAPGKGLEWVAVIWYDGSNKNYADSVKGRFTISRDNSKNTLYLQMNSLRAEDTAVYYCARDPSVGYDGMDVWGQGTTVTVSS VL: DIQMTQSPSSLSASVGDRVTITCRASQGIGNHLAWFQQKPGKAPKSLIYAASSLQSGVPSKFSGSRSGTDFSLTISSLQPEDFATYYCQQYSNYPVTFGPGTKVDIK | 1.75
10G6 (antibody, V domains shown, mAb) VH: QVQLVQSGAEVKKPGASVKVSCKASGYTFTAYHMHWVRQAPGQGLEWMGWINPNNNGTNYAQKFQGRVTMTRDTSISTAYMELSRLRSDDTAVYYCGRDVTSSFDYWGQGTLVTVSS VL: DIQMTQSPSSVSASVGDRVTITCRASQGISKWLAWYQQKPGKAPKILIYAAYSLQSGVPARFSGSGSGTDFTLTIRSLQPEDFATYYCQQANSFPFTFGPGTKVDIK | 1.09
85F7 (antibody, V domains shown, mAb) VH: QVQLQQWGAGLLKPSEPLSLTCAVYGGSFSGPYWSWIRQPPGKGLEWIGEINHSGSTNYNPSLKSRVTISVDTSKNQFSLKLTSVTAADTAVYYCARDYGGLDVWGQGTTVTVSS VL: EPVLTQSPGTLSLSPGERATLSCRASQNIYSNYLAWYQQKPGQAPRLLIYGASSRATGIPDRFSGSGSGTDFTLTISRLEPEDFAVYCCQQYESSPWTFGQGTKVEIK | 0.917
198G3 (antibody, V domains shown, mAb) VH: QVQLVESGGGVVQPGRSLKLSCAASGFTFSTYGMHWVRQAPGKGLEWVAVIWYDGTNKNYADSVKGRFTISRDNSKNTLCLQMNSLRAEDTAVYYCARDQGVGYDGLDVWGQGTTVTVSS VL: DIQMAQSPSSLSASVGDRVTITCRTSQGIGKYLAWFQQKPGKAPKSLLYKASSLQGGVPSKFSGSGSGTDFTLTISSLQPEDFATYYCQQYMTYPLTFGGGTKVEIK | 0.75
29E2 (antibody, V domains shown, mAb) VH: QVQLVESGGGVVQPGRSLRLSCAASGFTFSNCVMHWVRQAPGKGLEWVAVIWYDGSNKYYADSVKGRITISRDNSKNTLYLQMNSLRAEDTAVYYCAREEYSSGWYDYGMDVWGQGTTVTVSS VL: DIQMTQSPSSLSASVGDRVTITCRASQAIRNDLGWYQQRPGKAPKRLIYAASSLQSGVPSRFSGSGSGTEFILTISSLQPEDFATYYCLQHYNYPRSFGQGTKLEIK | 0.786

Switching to the query record.
Form field: reported Normalization to wt ASGR1 Binding of 149D11 (antibody, V domains shown, mAb) VH: EVQLLESGGGLVQPGGSLRLSCAASGFTFSSYAMSWVRQAPGKGLEWVSAISGRGGNTFYADSVKGRFTISRDNSKNTLYRQMNSLRAEDTAVYYCAKKDYDYVWGSPYFDYWGQGTLVTVSS VL: DIQMTQSPASVSASVGDRVTITCRASQNISNWLTWYQQKPGKAPKLLIYAASSLQSGVPSRFSGSGSGTDFTLSISSLQPEDFATYYCQQTDSFPFTFGPGTKVDVK
1.22
